- TARGET UNDER TEST: Recombinant (1-346) HPK1 (h) (Homo sapiens, UniProt Q92918)
- Construct: Recombinant (1-346) HPK1 (h) is incubated with 8 mM MOPS pH 7.0
- Sequence (Q92918 1-346): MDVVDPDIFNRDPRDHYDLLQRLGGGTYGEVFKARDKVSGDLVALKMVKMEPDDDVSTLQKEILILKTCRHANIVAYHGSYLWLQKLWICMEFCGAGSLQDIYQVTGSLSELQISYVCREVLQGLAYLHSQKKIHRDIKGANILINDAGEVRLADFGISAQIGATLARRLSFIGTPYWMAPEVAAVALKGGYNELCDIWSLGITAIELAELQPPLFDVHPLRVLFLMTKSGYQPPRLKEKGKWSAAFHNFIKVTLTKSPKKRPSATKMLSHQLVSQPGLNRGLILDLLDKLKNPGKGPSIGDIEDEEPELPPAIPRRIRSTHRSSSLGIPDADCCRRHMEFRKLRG
- ASSAY NOTES: HPK1 human STE kinase enzymatic radiometric assay
- Assay type: biochemical
- ASSAY SETUP: read-out: HPK1 IC50 nM Range
READOUT LABEL: IC50

CN(C)[C@@H]1COc2ccc(-c3nc(-c4ccc5c(=O)[nH]ccc5c4)c(N)nc3F)cc21; 11 to 100 nM

Problem: What value of IC50 has been recorded for this entry: "Cc1nc2cc(-c3nc(-c4ccc(C5CCOCC5)c(CN(C)C)c4)c(F)nc3N)ccc2c(=O)[nH]1"
Result: 0.1 to 10 nM

Problem: Another: "CN(C)Cc1cc(-c2nc(-c3ccc4c(c3)CCNC4=O)c(N)nc2F)ccc1F"
Result: 11 to 100 nM

Problem: Another: "C[C@@H]1CN(C)CCN1c1ccc(-c2nc(-c3cc4c(cc3F)C(=O)NCC4)c(N)nc2F)cc1"
Result: 0.1 to 10 nM

Problem: Another: "COc1ccc(-c2nc(-c3ccc4c(c3)CCNC4=O)c(N)nc2F)cc1CN(C)C"
Result: 11 to 100 nM

Problem: Another: "Nc1nc(F)c(-c2ccc(N3CCN(CCCC(F)F)CC3)cc2)nc1-c1ccc2c(=O)[nH]cc(F)c2c1"
Result: 0.1 to 10 nM

Problem: Another: "Nc1nc(F)c(-c2ccc(N3CCOCC3)c(CN3CCCCC3)c2)nc1-c1cc(F)c2c(c1)CCNC2=O"
Result: 11 to 100 nM
